test: Quantitative highthroughput screen to assess conditional lethalithy of SEM cells grown in Human Plasma-Like Medium with dialyzed fetal bovine serum (HPLM+ds) (AID 1963882); conditions: SEM B-ALL cells in HPLM+ds, CellTiter-Glo viability, 48 h; series mostly up to 45.8 µM; note: nearly all actives have a fitted effect of over 35% in size
Records with an inconclusive call do not appear. Activity calls are given as the source filed them. Calls come from the whole dose curve; as a rule, active = well fitted cell-killing curve with a large enough effect; inconclusive = small, poorly fitted or top-dose-only effect, or effect the other way; inactive = no such curve, though single readings can be large or run the other way. Numbered stars: 1 amine (or outer) side, 2 acyl side, 3 side chain; on linkers, the order of the positions; unused ones are H or OH. Bridge positions count the residues as written; N and C are the ends. Square brackets hold non-standard residues; d marks the D form. Peptide text beside a SMILES is read from it. I, II: the chains in the order shown. Actinocin(9to1) = Cc1c2oc3c(C)ccc(C(=O)[*:1])c3nc-2c(C(=O)[*:2])c(N)c1=O; NMeV = CN[CH](C(=O)O)C(C)C; Sar = CNCC(=O)O
The reply should name one outcome from 1 (active), 0 (inactive)

The examples below pair each entry with its known result.
CC(=O)N[C@@H]1[C@H](O[C@@H]2c3ccc(c(Cl)c3)Oc3cc4cc(c3O[C@H]3O[C@H](CO)[C@@H](O)[C@H](O)[C@H]3NC(=O)CCCCCCCC(C)C)Oc3ccc(cc3Cl)C[C@H]3NC(=O)[C@H](N)c5ccc(O)c(c5)Oc5cc(O)cc(c5)[C@H](NC3=O)C(=O)N[C@H]4C(=O)N[C@H]3C(=O)N[C@@H]2C(=O)N[C@@H](C(=O)O)c2cc(O)cc(O[C@H]4O[C@H](CO)[C@@H](O)[C@H](O)[C@H]4O)c2-c2cc3ccc2O)O[C@H](CO)[C@@H](O)[C@@H]1O : 0
CN(C)c1ccc2nc3ccc(=[N+](C)C)cc-3sc2c1 : 1

Query block: Recorded call for CC1Cc2ccccc2N1NC(=O)c1ccc(Cl)c(S(N)(=O)=O)c1 (stereo unspecified) ?
Result block: 0

Query block: Moving on to Cc1cc(O)c2c(c1)C(=O)c1cc(O)cc(O)c1C2=O
Result block: 0

Query block: Moving on to C=C1C(=O)O[C@H]2[C@@H]1CCC(C)=CCC[C@@]1(C)O[C@@H]21
Result block: 1

Query block: Moving on to CCC[C@H](N[C@@H](C)C(=O)N1[C@@H]2CCCC[C@H]2C[C@H]1C(=O)O)C(=O)OCC
Result block: 0

Query block: Moving on to CCn1cc(C(=O)O)c(=O)c2cc(F)c(N3CCN(C)CC3)cc21
Result block: 0

Query block: Moving on to Cc1cnc(Nc2ccc(N3CCN(C)CC3)cc2)nc1Nc1cccc(S(=O)(=O)NC(C)(C)C)c1
Result block: 1

Query block: Moving on to Nc1nc(OCc2ccccc2)c2[nH]cnc2n1
Result block: 0

Query block: Moving on to Cc1c2oc3c(C)ccc(C(=O)NC4C(=O)NC(C(C)C)C(=O)N5CCCC5C(=O)N(C)CC(=O)N(C)C(C(C)C)C(=O)OC4C)c3nc-2c(C(=O)NC2C(=O)NC(C(C)C)C(=O)N3CCCC3C(=O)N(C)CC(=O)N(C)C(C(C)C)C(=O)OC2C)c(N)c1=O (stereo unspecified) (I: TVP[Sar][NMeV] / II: TVP[Sar][NMeV]; ester I:1-I:C, II:1-II:C; linker I:N-II:N via Actinocin(9to1); configuration not given here)
Result block: 0

Query block: Moving on to CCN1C[C@H](C)n2c(c(O)c3c(=O)n(Cc4ccc(F)c(Cl)c4)nc(C(=O)NC)c32)C1=O
Result block: 0

Query block: Moving on to C=C(C)[C@@H]1CC[C@]2(C)CC[C@]3(C)[C@H](CC[C@@H]4[C@@]5(C)CC[C@H](O)C(C)(C)[C@H]5CC[C@]43C)[C@@H]12
Result block: 0

Provenance of the data: PubChem BioAssay (NCATS)
